- System: methicillin-resistant Staphylococcus aureus HO 5096 0412 (MRSA)
- Type: cell-based
- measurement parameters: methicillin-resistant HO 5096 0412
No end group written: not given here.
Readings of MIC MRSA for the listed substances

substance	units text	MIC MRSA
RWRRPIRRRPIRPPFWRGGGKRRVRWIIW-NH2 [hyP7B5G]	µM	2
RWRRPIRRRPIRPPFWRKKKKRRVRWIIW-NH2 [hyP7B5K]	µM	2
RWRRPIRRRPIRPPFWRKGKGKGKRRVRWIIW-NH2 [hyP7B5GK]	µM	1

Each recorded value in this set is attributed to paper PMC8711299.
